// data source = patent US5110935A

runDescription: Stability in the presence of fetal calf serum
Assay type: in vitro ADME
recordedConditions: bovine; fetal calf serum 95%, 37° C., 48 h; read-out: Relative concentration of primaquine (PQ) from derivative
Method: The influence of serum on the stability of primaquine (PQ) and its derivatives is determined by incubating these compounds at 37° C. at a concentration of 100 μg/ml in 95% fetal calf serum (FCS, Flow Laboratories) or human serum and phosphate-buffered saline (0.15 M PBSA, pH 7.2) as a control. All the solutions are sterilized by filtration on a Millipore filter (Millex GV) of porosity 0.20 μm. […] fetal calf serum (95% final) and then analyzed by spectrophotometry after […]
property: metabolised at 48 h (%)
Enter your answer as a number in %; do not include the unit.

Please fill in: metabolised at 48 h reported for COc1cc(NC(C)CCCNC(=O)[C@@H]2CCC(=O)N2)c2ncccc2c1 (stereo partly shown) = 0

###

Tested on: female Swiss OF1 mice
runDescription: Acute toxicity in mice after a single i.v. administration
Type: in vivo
recordedConditions: single i.v., mg PQ diphosphate equivalent/kg; weight loss not exceeding 5% during 5 days
Recorded Maximum tolerated dose (MTD) for the following molecules

Please fill in: Maximum tolerated dose (MTD) reported for COc1cc(NC(C)CCCNC(=O)[C@@H](N)CC(=O)O)c2ncccc2c1 (some centres unmarked) = 107.2 (14.2) mg/kg

Please fill in: Maximum tolerated dose (MTD) reported for COc1cc(NC(C)CCCNC(=O)C[C@H](N)C(=O)O)c2ncccc2c1 (some centres unmarked) = 109.1 (13.1) mg/kg

Please fill in: Maximum tolerated dose (MTD) reported for COc1cc(NC(C)CCCNC(=O)CC[C@H](N)C(=O)O)c2ncccc2c1 (some centres unmarked) = 117 (13) mg/kg

Please fill in: Maximum tolerated dose (MTD) reported for COc1cc(NC(C)CCCNC(=O)[C@@H]2CCC(=O)N2)c2ncccc2c1 (some centres unmarked) = 126 (13) mg/kg

Please fill in: Maximum tolerated dose (MTD) reported for COc1cc(NC(C)CCCN)c2ncccc2c1 (centres unmarked) [Primaquine, reference compound] = 24 (2.1) mg/kg

###

Recorded metabolised at 24 h for the following compounds
runDescription: Stability in the presence of fetal calf serum
Format: in vitro ADME
recordedConditions: bovine; fetal calf serum 95%, 37° C., 24 h; read-out: Relative concentration of primaquine (PQ) from derivative
Enter your answer as a number in %; do not include the unit.

Please fill in: metabolised at 24 h reported for COc1cc(NC(C)CCCNC(=O)[C@@H]2CCC(=O)N2)c2ncccc2c1 (some centres unmarked) = 0

Please find the next compound below.
Please fill in: metabolised at 24 h reported for COc1cc(NC(C)CCCNC(=O)CC[C@H](N)C(=O)O)c2ncccc2c1 (some centres unmarked) = 4

###

runDescription: Hydrolysis in the presence of lysosomal enzymes
Format: in vitro ADME, rat
recordedConditions: rat, liver lysosomal enzyme fraction, pH 4.5, 48 h, read-out: Relative concentration of primaquine (PQ) from derivative
property: metabolised at 48 h (%)
Enter your answer as a number in %; do not include the unit.

Please fill in: metabolised at 48 h reported for COc1cc(NC(C)CCCNC(=O)[C@@H]2CCC(=O)N2)c2ncccc2c1 (stereo partly shown) = 0

###

runDescription: Hydrolysis in the presence of lysosomal enzymes
Assay type: in vitro ADME, rat
recordedConditions: rat, liver lysosomal enzymes, pH 4.5, 37° C., 48 h, read-out: Relative concentration of compound (% of initial concentration)
property: remaining at 48 h (%)
Enter your answer as a number in %; do not include the unit.

Please fill in: remaining at 48 h reported for COc1cc(NC(C)CCCNC(=O)[C@@H]2CCC(=O)N2)c2ncccc2c1 (stereo partly shown) = 47
